tested on: sensitive E. coli ATCC 25922; assay: Checkerboard assay with LI14; assay type: cell-based, Escherichia coli; settings: antibiotic in combination with LI14, checkerboard
assay-readout: FIC index
One number for each entry.

item_smiles=CN(C)c1cc(NC(=O)CNC(C)(C)C)c(O)c2c1C[C@H]1C[C@H]3[C@H](N(C)C)C(O)=C(C(N)=O)C(=O)[C@@]3(O)C(O)=C1C2=O assay_readout="FIC index" val=0.5
item_smiles=CN[C@H](CC(C)C)C(=O)N[C@H]1C(=O)N[C@@H](CC(N)=O)C(=O)N[C@H]2C(=O)N[C@H]3C(=O)N[C@H](C(=O)N[C@H](C(=O)O)c4cc(O)cc(O)c4-c4cc3ccc4O)[C@H](O)c3ccc(c(Cl)c3)Oc3cc2cc(c3O[C@@H]2O[C@H](CO)[C@@H](O)[C@H](O)[C@H]2O[C@H]2C[C@](C)(N)[C@H](O)[C@H](C)O2)Oc2ccc(cc2Cl)[C@H]1O assay_readout="FIC index" val=0.375

// for each compound below, give its FIC index
1. C[C@H]1c2cccc(O)c2C(=O)C2=C(O)[C@]3(O)C(=O)C(C(N)=O)=C(O)[C@@H](N(C)C)[C@@H]3[C@@H](O)[C@@H]21
2. O=C(O)c1cn(C2CC2)c2cc(N3CCNCC3)c(F)cc2c1=O

a:
1: 0.25; 2: 1.5

----------
test system: E. coli B2 (blaNDM-5 + mcr-1); assay: microbe, parasite or virus in culture; format: cell-based, Escherichia coli; parameters: unit not given here; conditions: E. coli B2; unit not given
Ends that are not written are not given here.
assay-readout: Antibacterial activity of LI14 derivates
One number for each entry.

substance="LKKLCRILAKLCRI-NH2 [LI14-A9, Ala substitute of LI14, position 9]" tested_target="E. coli B2 (blaNDM-5 + mcr-1)" assay_readout="Antibacterial activity of LI14 derivates" val=4
substance="LAKLCRILKKLCRI-NH2 [LI14-A2, Ala substitute of LI14, position 2]" tested_target="E. coli B2 (blaNDM-5 + mcr-1)" assay_readout="Antibacterial activity of LI14 derivates" val=4
substance="LKKLCRALKKLCRI-NH2 [LI14-A7, Ala substitute of LI14, position 7]" tested_target="E. coli B2 (blaNDM-5 + mcr-1)" assay_readout="Antibacterial activity of LI14 derivates" val=16
substance="LKKLCRILKKLCRA-NH2 [LI14-A14, Ala substitute of LI14, position 14]" tested_target="E. coli B2 (blaNDM-5 + mcr-1)" assay_readout="Antibacterial activity of LI14 derivates" val=4
substance="LKKLCRILKKACRI-NH2 [LI14-A11, Ala substitute of LI14, position 11]" tested_target="E. coli B2 (blaNDM-5 + mcr-1)" assay_readout="Antibacterial activity of LI14 derivates" val=8

Go through the list and state Antibacterial activity of LI14 derivates for each entry.
1. LKKLCRIAKKLCRI-NH2 [LI14-A8, Ala substitute of LI14, position 8]
2. LKKACRILKKLCRI-NH2 [LI14-A4, Ala substitute of LI14, position 4]
3. AKKLCRILKKLCRI-NH2 [LI14-A1, Ala substitute of LI14, position 1]
4. LKKLARILKKLCRI-NH2 [LI14-A5]
5. LKKLCRILKKLARI-NH2 [LI14-A12]

a:
1. 8
2. 8
3. 4
4. 4
5. 4

Lab note: each substance below needs its Antibacterial activity of LI14 derivates filled in.
1. LKKLCRILKALCRI-NH2 [LI14-A10, Ala substitute of LI14, position 10]
2. LKALCRILKKLCRI-NH2 [LI14-A3, Ala substitute of LI14, position 3]
3. LKKLCRILKKLCAI-NH2 [LI14-A13, Ala substitute of LI14, position 13]
4. LKKLCAILKKLCRI-NH2 [LI14-A6, Ala substitute of LI14, Arg at position 6]

a:
[8, 8, 4, 32]
